- system_under_test: PI3Kα (Homo sapiens)
- Sequence (P42336 whole entry): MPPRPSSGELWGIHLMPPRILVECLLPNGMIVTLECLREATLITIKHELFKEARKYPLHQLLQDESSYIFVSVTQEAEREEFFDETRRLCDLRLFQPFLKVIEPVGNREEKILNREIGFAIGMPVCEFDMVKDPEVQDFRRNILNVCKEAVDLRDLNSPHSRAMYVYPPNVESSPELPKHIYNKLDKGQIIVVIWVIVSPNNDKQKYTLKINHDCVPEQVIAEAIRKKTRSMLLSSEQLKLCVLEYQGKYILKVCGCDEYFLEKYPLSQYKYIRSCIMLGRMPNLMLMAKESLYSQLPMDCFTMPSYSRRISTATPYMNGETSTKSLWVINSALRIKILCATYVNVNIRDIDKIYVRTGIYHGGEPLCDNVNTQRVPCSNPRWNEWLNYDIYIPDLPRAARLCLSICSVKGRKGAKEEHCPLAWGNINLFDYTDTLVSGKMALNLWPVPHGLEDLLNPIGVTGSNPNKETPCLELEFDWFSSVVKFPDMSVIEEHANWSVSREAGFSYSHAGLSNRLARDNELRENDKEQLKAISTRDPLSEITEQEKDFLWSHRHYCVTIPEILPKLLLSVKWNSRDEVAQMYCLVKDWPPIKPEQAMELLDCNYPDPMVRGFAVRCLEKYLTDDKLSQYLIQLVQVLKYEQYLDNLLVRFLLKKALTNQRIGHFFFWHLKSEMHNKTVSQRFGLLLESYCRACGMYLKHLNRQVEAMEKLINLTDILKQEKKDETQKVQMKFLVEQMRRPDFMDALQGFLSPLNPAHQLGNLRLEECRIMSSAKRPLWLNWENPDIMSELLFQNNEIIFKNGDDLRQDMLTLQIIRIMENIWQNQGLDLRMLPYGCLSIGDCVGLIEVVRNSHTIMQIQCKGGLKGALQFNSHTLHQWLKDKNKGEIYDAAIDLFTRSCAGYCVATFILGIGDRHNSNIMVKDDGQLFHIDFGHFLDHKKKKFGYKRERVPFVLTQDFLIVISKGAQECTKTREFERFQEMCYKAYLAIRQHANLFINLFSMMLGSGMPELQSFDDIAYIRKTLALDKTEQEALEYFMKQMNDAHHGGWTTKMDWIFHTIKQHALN
- Sequence (P27986 whole entry partner): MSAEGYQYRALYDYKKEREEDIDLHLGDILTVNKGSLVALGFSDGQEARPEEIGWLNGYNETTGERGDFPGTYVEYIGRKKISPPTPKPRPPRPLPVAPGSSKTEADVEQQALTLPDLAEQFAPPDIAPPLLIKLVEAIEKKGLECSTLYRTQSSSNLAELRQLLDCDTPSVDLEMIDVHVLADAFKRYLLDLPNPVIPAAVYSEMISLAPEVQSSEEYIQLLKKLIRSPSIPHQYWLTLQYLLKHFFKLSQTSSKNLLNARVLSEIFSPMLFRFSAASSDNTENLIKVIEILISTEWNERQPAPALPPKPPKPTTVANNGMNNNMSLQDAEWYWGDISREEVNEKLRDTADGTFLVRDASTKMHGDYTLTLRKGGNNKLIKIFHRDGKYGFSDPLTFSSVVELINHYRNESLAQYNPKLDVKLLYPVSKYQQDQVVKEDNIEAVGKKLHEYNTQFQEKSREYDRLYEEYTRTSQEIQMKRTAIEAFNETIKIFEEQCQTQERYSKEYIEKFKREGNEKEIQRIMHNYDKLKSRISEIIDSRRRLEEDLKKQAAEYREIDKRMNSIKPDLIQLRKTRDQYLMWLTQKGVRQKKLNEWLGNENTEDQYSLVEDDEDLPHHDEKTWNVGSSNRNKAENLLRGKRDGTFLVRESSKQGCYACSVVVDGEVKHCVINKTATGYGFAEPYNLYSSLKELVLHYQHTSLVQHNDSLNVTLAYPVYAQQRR
- measurement_notes: In vitro determination of the PI3K enzyme inhibitory activity in the cell free assay (ADP-Glo Kinase Assay), PI3Kα
- measurement_parameters: ATP 50 μM, read-out: PI3K alpha inhibition
metric_name: IC50

Below, each entry is followed by its recorded IC50 result.
compound	metric_name	result
Nc1ncnc2c1ncn2Cc1cc2ccccn2c1-c1cccc(F)c1 [Example 4]	IC50	> 1000 nM
CC(c1cc2ccccn2c1-c1ccc(C(=O)N2CCOCC2)cn1)n1nc(-c2cc(O)cc(F)c2)c2c(N)ncnc21 (centres unmarked) [Example 125]	IC50	10 to 1000 nM
Cc1cc(-c2c(C(C)n3nc(-c4cc(O)cc(F)c4)c4c(N)ncnc43)cc3ccccn23)ccn1 (centres unmarked) [Example 106]	IC50	> 1000 nM
CC(c1cc2ccccn2c1CN1CCOCC1)n1nc(-c2cc(O)cc(F)c2)c2c(N)ncnc21 (centres unmarked) [Example 141]	IC50	10 to 1000 nM
N#Cc1c(N)ncnc1NCc1cc2ccccn2c1-c1ccccc1 [Example 22]	IC50	> 1000 nM

Prompt: Give its IC50 value. Item: CC(c1cc2ccc(C(F)(F)F)cn2c1-c1ccccn1)n1nc(-c2cc(O)cc(F)c2)c2c(N)ncnc21 (centres unmarked) [Example 88]
Response: > 1000 nM

Prompt: Param item: Nc1ncnc2c1ncn2Cc1cc2ccccn2c1-c1ccccc1F [Example 6]
Response: > 1000 nM

Prompt: Param item: CC(c1cc2ccccn2c1-c1ccncc1)n1nc(-c2cc(O)cc(F)c2)c2c(N)ncnc21 (racemic) [Example 82]
Response: > 1000 nM

###

- system_under_test: UniProtKB P42336
- measurement_notes: In vitro determination of the PI3K enzyme inhibitory activity in the cell free assay (ADP-Glo Kinase Assay), PI3Kα
- measurement_parameters: ATP 50 μM, read-out: PI3K alpha inhibition
metric_name: IC50

Below, each entry is followed by its recorded IC50 result.
compound	system_under_test	metric_name	result
CC(c1cc2ccccn2c1CN1C[C@H]2CN(C)C[C@H]2C1)n1nc(-c2cc(O)cc(F)c2)c2c(N)ncnc21 (stereo partly shown)	UniProtKB P42336	IC50	10 to 1000 nM
CC(c1cc2ccccn2c1-c1ccccn1)n1nc(C#CCO)c2c(N)ncnc21 (stereo not shown)	UniProtKB P42336	IC50	> 1000 nM

Next compound, please.
Prompt: Give its IC50 value. Item: C[C@@H](c1cc2ccccn2c1-c1ccncc1)n1nc(-c2cc(O)cc(F)c2)c2c(N)ncnc21 (single isomer, unassigned) [Example 83]
Response: 10 to 1000 nM

###

- system_under_test: PI3Kα (Homo sapiens)
- measurement_notes: In vitro determination of the PI3K enzyme inhibitory activity in the cell free assay (ADP-Glo Kinase Assay), PI3Kα
- measurement_parameters: ATP 50 μM, read-out: PI3K alpha inhibition
pIC50: −log10 of the molar value.
metric_name: pIC50

Prompt: Give its pIC50 value. Item: Cc1ccccc1-c1c(CNc2ncnc(N)c2C#N)cn2ccccc12
Response: < 6.00

###

- system_under_test: PI3Kδ (Homo sapiens)
- Sequence (O00329 whole entry): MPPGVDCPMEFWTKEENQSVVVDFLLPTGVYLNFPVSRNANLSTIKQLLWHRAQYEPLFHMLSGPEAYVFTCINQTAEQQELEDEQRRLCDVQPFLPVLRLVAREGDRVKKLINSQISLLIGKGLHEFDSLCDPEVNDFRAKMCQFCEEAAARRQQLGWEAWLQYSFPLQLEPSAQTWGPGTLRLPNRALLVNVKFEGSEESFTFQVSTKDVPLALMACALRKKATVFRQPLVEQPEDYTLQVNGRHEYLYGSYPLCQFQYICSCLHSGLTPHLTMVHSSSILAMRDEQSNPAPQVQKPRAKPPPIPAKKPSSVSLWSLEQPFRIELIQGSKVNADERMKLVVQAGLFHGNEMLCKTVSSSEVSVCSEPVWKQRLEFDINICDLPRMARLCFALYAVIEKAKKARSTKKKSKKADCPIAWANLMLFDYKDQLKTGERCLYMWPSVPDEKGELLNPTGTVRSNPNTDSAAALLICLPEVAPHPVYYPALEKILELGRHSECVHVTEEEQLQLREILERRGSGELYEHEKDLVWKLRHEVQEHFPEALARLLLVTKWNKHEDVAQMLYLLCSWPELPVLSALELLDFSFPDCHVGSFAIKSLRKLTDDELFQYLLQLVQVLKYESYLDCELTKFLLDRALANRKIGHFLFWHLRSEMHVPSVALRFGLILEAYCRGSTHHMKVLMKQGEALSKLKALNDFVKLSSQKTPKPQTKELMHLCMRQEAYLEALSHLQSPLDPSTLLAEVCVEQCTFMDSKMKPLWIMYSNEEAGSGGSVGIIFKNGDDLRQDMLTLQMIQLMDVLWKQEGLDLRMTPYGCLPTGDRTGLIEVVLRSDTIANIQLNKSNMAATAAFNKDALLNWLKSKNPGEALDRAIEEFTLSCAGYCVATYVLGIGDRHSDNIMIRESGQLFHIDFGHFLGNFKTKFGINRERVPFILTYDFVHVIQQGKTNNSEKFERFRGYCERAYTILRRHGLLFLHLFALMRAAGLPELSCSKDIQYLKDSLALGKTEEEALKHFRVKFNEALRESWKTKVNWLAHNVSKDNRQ
- Sequence (P27986 whole entry partner): as the sequence (P27986 whole entry partner) above
- measurement_notes: In vitro determination of the PI3K enzyme inhibitory activity in the cell free assay (ADP-Glo Kinase Assay), PI3Kδ
- measurement_parameters: ATP 80 μM, read-out: PI3K delta inhibition
metric_name: IC50

Below, each entry is followed by its recorded IC50 result.
molecule	IC50
C[C@H](c1cc2ccccn2c1-c1cccc(CN(C)C)c1)n1nc(-c2cc(O)cc(F)c2)c2c(N)ncnc21 (single isomer, unassigned) [Example 93a]	< 0.01 µM
CC(c1cc2ccccn2c1-c1ccccc1)n1nc(-c2cc(O)cc(F)c2)c2c(N)ncnc21 (stereo not drawn) [Example 85]	0.01 to 1 µM
CC(c1cc2ccccn2c1-c1ccccn1)n1nc(-c2cccc(F)c2)c2c(N)ncnc21 (stereo not drawn) [Example 66]	0.01 to 1 µM
CC(c1cc2ccccn2c1-c1ccccn1)n1nc(-c2ccccc2)c2c(N)ncnc21 (stereo not drawn) [Example 60]	0.01 to 1 µM
CC(c1cc2ccccn2c1-c1ccccn1)n1nc(-c2ccc(O)c(F)c2)c2c(N)ncnc21 (stereo not drawn) [Example 70]	0.01 to 1 µM
Nc1ncnc2c1ncn2Cc1cn2ccccc2c1-c1cccc(F)c1 [Example 11]	> 1 µM

Prompt: Give its IC50 value. Item: CC(c1cc2ccccn2c1-c1ccc(CN(C)C)cc1)n1nc(-c2cc(O)cc(F)c2)c2c(N)ncnc21 (stereo not drawn) [Example 92]
Response: 0.01 to 1 µM

Prompt: Param item: CC(c1cc2ccccn2c1-c1ccn(CCN(C)C)c(=O)c1)n1nc(-c2cc(O)cc(F)c2)c2c(N)ncnc21 (single isomer, unassigned) [Example 133b]
Response: < 0.01 µM

Prompt: Param item: c1ccc(-c2c(CNc3ncnc4[nH]cnc34)cn3ccccc23)nc1 [Example 20]
Response: 0.01 to 1 µM

Prompt: Param item: Nc1ncnc2c1c(-c1cc(O)cc(F)c1)nn2Cc1cc2ccccn2c1-c1ccccn1 [Example 97]
Response: < 0.01 µM

Prompt: Param item: C[C@H](c1c(C#N)c2ccccn2c1-c1cccc(CN(C)C)c1)n1nc(-c2cc(O)cc(F)c2)c2c(N)ncnc21 (single isomer, unassigned) [Example 127a]
Response: < 0.01 µM

Prompt: Param item: CC(c1cc2ccccn2c1-c1ccccn1)n1nc(-c2cccc(CO)c2)c2c(N)ncnc21 (stereo not drawn) [Example 64]
Response: 0.01 to 1 µM

Prompt: Param item: Cc1c(C(C)n2nc(-c3cc(O)cc(F)c3)c3c(N)ncnc32)c(-c2ccccn2)n2ccccc12 (stereo not drawn) [Example 89]
Response: 0.01 to 1 µM

Prompt: Param item: N#Cc1c(N)ncnc1NCc1cc2ccccn2c1-c1ccccc1 [Example 22]
Response: 0.01 to 1 µM

Prompt: Param item: CC(Nc1ncnc(N)c1C(N)=O)c1cc2ccccn2c1-c1ccccn1 (stereo not drawn) [Example 52]
Response: 0.01 to 1 µM

###

- system_under_test: UniProt P42336
- measurement_notes: In vitro determination of the PI3K enzyme inhibitory activity in the cell free assay (ADP-Glo Kinase Assay), PI3Kα
- measurement_parameters: ATP 50 μM, read-out: PI3K alpha inhibition
pIC50: −log10 of the molar value.
metric_name: pIC50

Below, each entry is followed by its recorded pIC50 result.
compound	system_under_test	result
C[C@H](c1cc2ccccn2c1-c1ccn(CCN2CCOCC2)c(=O)c1)n1nc(-c2cc(O)cc(F)c2)c2c(N)ncnc21 (single isomer, unassigned) [Example 121b]	UniProt P42336	6.00 to 8.00
CC(c1cc2ccccn2c1-c1ccccc1)n1nc(-c2cc(O)cc(F)c2)c2c(N)ncnc21 (stereo not shown) [Example 85]	UniProt P42336	< 6.00
c1ccc(-c2c(CNc3ncnc4[nH]cnc34)cc3ccccn23)nc1 [Example 14]	UniProt P42336	< 6.00
CC(c1cc2ccccn2c1-c1ccc(CN(C)C)cn1)n1nc(-c2cc(O)cc(F)c2)c2c(N)ncnc21 (stereo not shown) [Example 109]	UniProt P42336	< 6.00
CC(c1cc2ccccn2c1-c1cccc(CN2CCN(C)CC2)n1)n1nc(-c2cc(O)cc(F)c2)c2c(N)ncnc21 (stereo not shown) [Example 115]	UniProt P42336	6.00 to 8.00

Prompt: What reported pIC50 corresponds to C[C@@H](c1cc2ccccn2c1-c1ccccn1)n1nc(-c2cc(O)cc(F)c2)c2c(N)ncnc21 (single isomer, unassigned) [Example 81] on UniProt P42336?
Response: < 6.00

Prompt: Param item: CC(c1cc2ccccn2c1-c1ccccn1)n1nc(-c2cccc(S(N)(=O)=O)c2)c2c(N)ncnc21 (stereo not shown) [Example 73]
Response: < 6.00

###

- system_under_test: PI3Kβ (Homo sapiens, UniProt P42338)
- Sequence (P42338 whole entry): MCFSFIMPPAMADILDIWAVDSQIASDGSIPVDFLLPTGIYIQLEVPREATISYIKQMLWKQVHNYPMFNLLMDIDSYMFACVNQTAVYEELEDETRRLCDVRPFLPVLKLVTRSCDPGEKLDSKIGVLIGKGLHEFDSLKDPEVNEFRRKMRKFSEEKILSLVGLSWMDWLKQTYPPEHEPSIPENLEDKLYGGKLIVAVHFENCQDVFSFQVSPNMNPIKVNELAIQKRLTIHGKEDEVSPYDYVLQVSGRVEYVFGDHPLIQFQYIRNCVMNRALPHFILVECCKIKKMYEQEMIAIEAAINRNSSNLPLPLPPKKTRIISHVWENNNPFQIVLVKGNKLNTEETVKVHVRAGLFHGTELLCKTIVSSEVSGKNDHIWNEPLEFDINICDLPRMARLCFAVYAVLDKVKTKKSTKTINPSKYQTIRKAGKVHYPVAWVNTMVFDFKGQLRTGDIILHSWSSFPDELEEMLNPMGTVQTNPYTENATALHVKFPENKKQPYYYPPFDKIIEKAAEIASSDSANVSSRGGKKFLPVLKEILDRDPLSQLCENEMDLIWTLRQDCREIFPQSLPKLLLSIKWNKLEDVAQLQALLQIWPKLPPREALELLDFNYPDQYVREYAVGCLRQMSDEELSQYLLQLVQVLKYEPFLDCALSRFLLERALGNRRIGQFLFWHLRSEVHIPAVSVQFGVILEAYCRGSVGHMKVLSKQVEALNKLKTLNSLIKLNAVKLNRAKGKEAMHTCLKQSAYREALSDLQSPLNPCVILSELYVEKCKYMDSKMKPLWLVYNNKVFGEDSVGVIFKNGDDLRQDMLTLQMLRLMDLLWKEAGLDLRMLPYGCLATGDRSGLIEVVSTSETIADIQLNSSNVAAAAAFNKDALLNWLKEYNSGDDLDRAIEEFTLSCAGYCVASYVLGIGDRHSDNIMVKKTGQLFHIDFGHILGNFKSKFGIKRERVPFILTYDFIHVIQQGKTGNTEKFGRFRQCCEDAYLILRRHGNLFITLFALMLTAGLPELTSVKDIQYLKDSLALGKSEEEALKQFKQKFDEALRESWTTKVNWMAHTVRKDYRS
- Sequence (P27986 whole entry partner): as the sequence (P27986 whole entry partner) above
- measurement_notes: In vitro determination of the PI3K enzyme inhibitory activity in the cell free assay (ADP-Glo Kinase Assay), PI3Kβ
- measurement_parameters: ATP 100 μM, read-out: PI3K beta inhibition
metric_name: IC50

compound	IC50
Nc1ncn(Cc2cc3ccccn3c2-c2cccc(F)c2)c2ncnc1-2	> 1 µM
CC(c1cc2ccccn2c1-c1ccc(OC2CCN(C)CC2)nn1)n1nc(-c2cc(O)cc(F)c2)c2c(N)ncnc21 (centres unmarked)	0.01 to 1 µM
CCC(Nc1ncnc(N)c1C#N)c1cc2ccccn2c1-c1ccccn1 (centres unmarked)	> 1 µM

Prompt: Give its IC50 value. Item: Cc1ccccc1-c1c(Cn2cnc3c(N)ncnc32)cn2ccccc12
Response: > 1 µM

Prompt: Param item: Nc1ncnc2c1c(-c1cc(O)cc(F)c1)nn2Cc1cc2cccnn2c1-c1ccccn1
Response: 0.01 to 1 µM

Prompt: Param item: C[C@H](c1cc2ccccn2c1-c1ccn(CCN2CCOCC2)c(=O)c1)n1nc(-c2cc(O)cc(F)c2)c2c(N)ncnc21 (single isomer, unassigned) [Example 121b]
Response: 0.01 to 1 µM

Prompt: Param item: Nc1ncnc2c1c(-c1cc(O)cc(F)c1)nn2Cc1cc2ccccn2c1-c1cccnc1
Response: 0.01 to 1 µM

Prompt: Param item: CC(Nc1ncnc(N)c1C(F)(F)F)c1cc2ccccn2c1-c1ccccn1 (centres unmarked)
Response: > 1 µM
